Biological target: Cytochrome P450 2C19 (Homo sapiens)
Sequence (P33261 whole entry): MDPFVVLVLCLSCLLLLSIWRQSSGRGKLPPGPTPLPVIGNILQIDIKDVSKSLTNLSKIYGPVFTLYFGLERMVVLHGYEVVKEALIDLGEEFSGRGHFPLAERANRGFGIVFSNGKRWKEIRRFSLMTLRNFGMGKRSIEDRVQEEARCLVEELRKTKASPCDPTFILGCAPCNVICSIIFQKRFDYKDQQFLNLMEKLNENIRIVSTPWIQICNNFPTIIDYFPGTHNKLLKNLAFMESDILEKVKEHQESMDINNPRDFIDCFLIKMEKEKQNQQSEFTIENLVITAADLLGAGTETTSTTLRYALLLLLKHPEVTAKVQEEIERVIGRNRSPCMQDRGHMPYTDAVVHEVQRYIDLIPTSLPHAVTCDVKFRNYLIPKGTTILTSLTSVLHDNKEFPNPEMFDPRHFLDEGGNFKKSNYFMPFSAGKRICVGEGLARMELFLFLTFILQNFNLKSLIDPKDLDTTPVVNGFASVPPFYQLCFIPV
Collected IC50 values appear next to each entry.

Below, 2 molecules whose answers are already recorded.
# molecule, IC50
data = [
    ("CC(C)Oc1ccc(-c2nc(-c3cccc4c3cnn4CCC(=O)[O-])no2)cc1Cl.[Na+]", "> 50 µM"),
    ("CC(C)Oc1ccc(-c2nc(-c3ccc4c(c3)CCN(CCCC(=O)O)CC4)no2)cc1C#N", "> 50 µM"),
]

For the next question, use this molecule.
The molecule listed as CC(C)Oc1ncc(-c2nc(-c3cccc4c3OCCNC4CCCC(=O)O)no2)cc1Cl (stereo in doubt; 31b) shows IC50 equal to > 50 µM

###

Collected CLH values appear next to each entry.
System: Hepatocyte
Assay: Intrinsic clearance in rat hepatocyte
Assay type: ADME, cell-based
Conditions: hepatocytes

Below, 2 compounds whose answers are already recorded.
# compound, outcome_measure, reported_measurement
measured = [
    ("CC(C)Oc1ccc(-c2nc(-c3ccc4c(c3)CCN(CCCC(=O)O)CC4)no2)cc1C#N", "CLH", "< 0.85 mL/min/g"),
    ("CC(C)Oc1ccc(-c2nc(-c3cccc4c3OCCN(CCCC(=O)O)C4)no2)cc1Cl", "CLH", "1 mL/min/g"),
]

Simply: CC(C)Oc1ncc(-c2nc(-c3cccc4c3OCCNC4CCCC(=O)O)no2)cc1Cl (stereo in doubt; 31b) , Hepatocyte, CLH = < 0.9 mL/min/g

Simply: `CC(C)Oc1ccc(-c2nc(-c3cccc4c3cnn4CCC(=O)[O-])no2)cc1Cl.[Na+]` , Hepatocyte, CLH = < 0.9 mL/min/g
